# protocol: yeast display, Sf9 membrane polyspecificity reagent, FACS + sequencing; frameworks hold sequencing errors

{"sequenceText": "QVQLVESGGGLVQAGGSLRLSCAASGITFPFYAMGWYRQAPGKERELVAAISRRGGRTYYADSVKGRFTISRDNAKNTVYLQMNSLKPEDTAVYYCAAANGSADGDYWGQGTQVTVSS", "polyreactivity (PSR sort gate)": "high polyreactivity"}
{"sequenceText": "QVQLVESGGGLVQAGGSLRLSCAASGYTLDNYAMGWYRQAPGKERELVAGITFSGGSTFYADSVKGRFTISRDNAKNTVYLQMNSLKPEDTAVYYCAADAEFQADHKYGYWGQGTQVTVSS", "polyreactivity (PSR sort gate)": "low polyreactivity"}
{"sequenceText": "QVQLVESGGGLVQAVGSLRLSCAASGSIFGAYAMGWYRQAPGKERELVAAITSGGSTNYADSVKGRFTISRDNAKNTVYLQMNSLKPEDTAVYYCAARRRYAKFRYDYWGQGTQVTVSS", "polyreactivity (PSR sort gate)": "high polyreactivity"}
{"sequenceText": "QVQLVESGGGLVQAGGSLRLSCAASGFIFSKNAMGWYRQAPGKERELVAAISTRGGSTYYADSVKGRFTISRDNAKNTVYLQMNSLKPEDTAVYYCNKEWYPYKHNYWGQGTQVTVSS", "polyreactivity (PSR sort gate)": "low polyreactivity"}
{"sequenceText": "QVQLVETGGGLVQAGGSLGLSCDASGSTFLYVRGWYRQAPGKERELVAAISESGGSPYYADSVKGRFTISRDNAKNTVYLQMNSLKPEDTAVYYCAADLPSGLQYRYYRVDYWGQGTQVTVSS", "polyreactivity (PSR sort gate)": "low polyreactivity"}
